# assay_system: Human HPK1, catalytic domain (Homo sapiens)
# Sequence (Q92918 1-346): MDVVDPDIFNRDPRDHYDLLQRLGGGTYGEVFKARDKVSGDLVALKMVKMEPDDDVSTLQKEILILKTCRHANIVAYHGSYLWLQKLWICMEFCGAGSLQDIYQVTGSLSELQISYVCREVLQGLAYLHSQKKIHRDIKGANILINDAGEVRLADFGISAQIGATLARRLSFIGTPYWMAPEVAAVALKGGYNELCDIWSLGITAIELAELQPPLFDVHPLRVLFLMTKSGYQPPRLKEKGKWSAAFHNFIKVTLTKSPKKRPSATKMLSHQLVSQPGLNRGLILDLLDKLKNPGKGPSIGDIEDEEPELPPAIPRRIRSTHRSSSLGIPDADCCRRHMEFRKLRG
endpoint_name: IC50 (nM)

A selection of reference data follows.
compound: COc1cc2c(cc1Nc1ncc3c(N)c(F)c(-c4cnc5c(c4C)NCCO5)cc3n1)CN(C)CC2
IC50, nM: 0.0915

compound: COc1cc2c(cc1Nc1ncc3ccc(Oc4ccc(C(=O)N5CCN(C)CC5)cc4)cc3n1)CN(C)CC2
IC50, nM: 583

compound: Cc1c(-c2c(F)c(N)c3cnc(Nc4ccc(N5CCOC5=O)cc4)nc3c2Cl)cnc2c1NCCO2 [Compound 2-159]
IC50, nM: 47

compound: COc1cc2c(cc1Nc1ncc3ccc(-c4cc(NC(C)=O)ccc4C)cc3n1)CNCC2
IC50, nM: 462

compound: COc1cc2c(cc1Nc1ncc3ccc(-c4cncc(N5CCOCC5)c4)cc3n1)CNCC2
IC50, nM: 38.5

I. COc1cc2c(cc1Nc1ncc3ccc(N4CCn5c(C)nnc5C4)cc3n1)CN(C)CC2
II. CC(=O)N1CCCC1c1ccc(Nc2ncc3c(N)c(F)c(-c4cnc5c(c4C)NCCO5)cc3n2)cc1 (single isomer, unassigned)
III. COc1cc2c(cc1Nc1ncc3ccc(-c4cccc(N5CCOCC5)c4)cc3n1)CNCC2
IV. COc1cc2c(cc1Nc1ncc3ccc(NCC(=O)N4CCOCC4)cc3n1)CN(C)CC2
// query In this exercise, place the 4 compounds in ascending sequence of their recorded IC50. Provide the ranking by listing each label in its place in the requested order.
// result II, IV, III, I

A. Cc1c(-c2c(F)c(N)c3cnc(Nc4ccc(CS(C)(=O)=O)cc4)nc3c2Cl)cnc2c1NCC(C)(C)O2
B. COc1ccc(CC#N)cc1Nc1ncc2c(N)c(F)c(-c3cnc4c(c3C)NCCO4)cc2n1
// query Among A and B , whose measured IC50 is the smaller figure? Please respond with the label that marks your chosen entry.
// result A

a. COc1cc2c(cc1Nc1ncc3ccc(Nc4cccc(CO)n4)cc3n1)CN(C)CC2
b. CNC(=O)c1ccc(-c2ccc3cnc(Nc4cc5c(cc4OC)CCN(C)C5)nc3c2)cn1
// query Between the two listed entries a and b , which has its IC50 at the higher number? Respond with the label that goes with your answer.
// result b
(b: 294 nM, a: 20.5 nM)

I. COc1cc2c(cc1Nc1ncc3ccc(-c4ccc(S(=O)(=O)N5CCCC5)cc4)cc3n1)CNCC2
II. Cc1c(-c2c(F)c(N)c3cnc(Nc4ccc(N5CCOC5=O)cc4)nc3c2Cl)cnc2c1NCCO2 (single isomer, unassigned) [Compound 2-156]
// query Higher IC50 between I and II ? Refer to your chosen item by its label in the answer.
// result I

a. COc1cc2c(cc1Nc1ncc3ccc(N[C@H]4CCC[C@@H]4O)cc3n1)CN(C)CC2
b. COc1cc2c(cc1Nc1ncc3ccc(NC4(C(=O)N(C)C)CCC4)cc3n1)CN(C)CC2
// query Name the one with the greater IC50 value, either a or b as given. Your choice should be expressed through its label.
// result b
(b: 824 nM, a: 180 nM)

A. COc1cc2c(cc1Nc1ncc3ccc(-c4ccc5c(c4)CCCO5)cc3n1)CNCC2
B. CNC(=O)C1CCc2cc(Nc3ncc4cc(F)c(-c5cnc6c(c5C)NCCO6)cc4n3)ccc21 (single isomer, unassigned)
C. CC(=O)NC1CCc2cc(Nc3ncc4c(N)c(F)c(-c5cnc6c(c5C)NCCO6)cc4n3)ccc21 (single isomer, unassigned) [Compound 2-10]
D. CCC(=O)Nc1cncc(-c2ccc3cnc(Nc4cc5c(cc4OC)CCNC5)nc3c2)c1
// query Reorder: IC50, max to min. The response must list the labels following the requested ordering.
// result A, D, C, B

I. Cc1c(-c2cc3nc(Nc4ccc5c(c4)CCN(C)CC5)ncc3c(N)c2F)cnc2c1NCCO2
II. COc1cc2c(cc1Nc1ncc3ccc(NCC(=O)N(C)C)cc3n1)CN(C)CC2
// query Would you let me know which has the greater IC50 value, I or II ? Provide the label of your selected option as the answer.
// result II

a. CS(=O)(=O)Cc1ccc(Nc2ncc3c(N)c(F)c(-c4cnc5c(c4Cl)NCCO5)cc3n2)cc1
b. COc1cc2c(cc1Nc1ncc3ccc(-c4ccc(NCCN5CCOCC5)nc4)cc3n1)CNCC2
c. COc1cc2c(cc1Nc1ncc3ccc(Nc4ccc(C)c(S(N)(=O)=O)c4)cc3n1)CN(C)CC2
d. Cc1c(-c2cc3nc(Nc4cncnc4)ncc3c(N)c2F)cnc2c1NCCO2
e. Cc1c(-c2cc3nc(Nc4ccc5c(c4)CN(C)CC5)ncc3c(N)c2F)cnc2nc[nH]c12
// query Reorder: IC50, max to min. In your reply, arrange the labels in the requested order.
// result b, c, d, e, a

A. Cc1c(-c2cc3nc(Nc4ccc5c(c4)CN(C)CC54CC4)ncc3c(N)c2F)cnc2c1NCCO2
B. CNC(=O)CNc1ccc2cnc(Nc3cc4c(cc3OC)CCN(C)C4)nc2c1
// query Of A and B , which shows the smaller IC50 value? Refer to your chosen entry by its label in the reply.
// result A
